Some compounds, each annotated with its measured melting point.

• COc1cc(Nc2c(C#N)cnc3c2C=C2N=C(NCCN4CCOCC4)N=C2C3)cc(OC)c1OC = 175 to 178 °C
• COc1cc(Nc2c(C#N)cnc3cc4cc(OCCCCl)c(OC)cc4cc23)c(Cl)cc1Cl = 220 to 223 °C
• C=CC(=O)Nc1cccc2c1sc1c(Nc3cccc(Br)c3)c(C#N)cnc12 = 286 to 287 °C
• N#Cc1cnc2c(sc3ccc([N+](=O)[O-])cc32)c1Nc1cccc(Br)c1 = > 300 °C
• COc1cc(Nc2c(C#N)cnc3cc4cc(OCc5ccccc5)c(OC)cc4cc23)c(Cl)cc1F = 248 to 250 °C (dec.)
• COc1cc(Nc2c(C#N)cnc3cc4cc(OCCN5CCN(C)CC5)c(OC)cc4cc23)c(Cl)cc1F = 197 to 205 °C
• N#Cc1cnc2c(sc3ccccc32)c1Nc1ccc(Oc2ccccc2)cc1 = 230 to 233 °C
• COc1cc2cc3c(Nc4cc(OC)c(F)cc4Cl)c(C#N)cnc3cc2cc1O = 239 to 242 °C (dec.)
• N#Cc1cnc2c(c1Nc1ccc(Cl)cc1Br)C=C1N=CN=C1C2 = 244 to 246 °C
• COc1cc(Nc2c(C#N)cnc3nc4cc(OCCCl)c(OC)cc4cc23)c(Cl)cc1Cl = 227 to 230 °C (dec.)

Report melting point for COc1cc(Nc2c(C#N)cnc3c2C=C2N=C(CN4CCOCC4)N=C2C3)cc(OC)c1OC
258 to 260 °C (dec.)

Report melting point for COc1cc2cc3c(Nc4ccc(Oc5ccccc5)c(Cl)c4)c(C#N)cnc3cc2cc1OCCN1CCOCC1
190 to 194 °C

Report melting point for N#Cc1cnc2c(oc3ccccc32)c1Nc1ccc(Oc2ccccc2)cc1
175 to 179 °C

---

Some compounds, each annotated with its measured GI50.
# SUBJECT_OF_TEST: Rat2 fibroblasts transformed with v-Src/Hu c-Src fusion gene (Homo sapiens, UniProt P12931, cells depend on it, form not given)
# Construct: fused on or other part: The v-Src frame of Rous sarcoma virus: everything outside the catalytic domain, namely the N-terminal unique/SH3/SH2 part; Candidates are Prague C (P00526), then Schmidt-Ruppin A (P00524)
# Sequence (P12931 whole entry, change not shown, the tested form may be a part): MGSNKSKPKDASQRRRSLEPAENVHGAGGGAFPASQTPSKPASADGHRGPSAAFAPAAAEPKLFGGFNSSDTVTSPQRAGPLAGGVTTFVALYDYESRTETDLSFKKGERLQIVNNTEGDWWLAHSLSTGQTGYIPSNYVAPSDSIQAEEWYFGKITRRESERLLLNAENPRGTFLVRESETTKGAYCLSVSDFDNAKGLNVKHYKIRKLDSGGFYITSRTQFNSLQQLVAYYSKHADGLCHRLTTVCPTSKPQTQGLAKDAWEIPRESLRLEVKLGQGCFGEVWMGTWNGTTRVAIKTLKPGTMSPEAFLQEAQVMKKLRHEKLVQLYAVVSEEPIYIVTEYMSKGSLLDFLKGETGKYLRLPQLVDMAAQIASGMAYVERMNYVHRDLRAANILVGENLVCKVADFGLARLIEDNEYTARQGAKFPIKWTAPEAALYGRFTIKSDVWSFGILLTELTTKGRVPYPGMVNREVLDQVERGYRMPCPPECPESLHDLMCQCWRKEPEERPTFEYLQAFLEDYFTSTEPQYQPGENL
# MEASUREMENT_NOTES: Anchorage independent Src-transformed fibroblast proliferation test procedure
# Assay type: cell-based, rat
# RUN_CONDITIONS: rat2 fibroblasts transformed with v-src/hu c-src fusion gene; read-out: Src TF prolif IC50
Quick note: give the figure in nM, leave out the unit.

Example compounds with recorded GI50:
- COc1cc(Nc2c(C#N)cnc3cc4cc(OCCN5CCN(C)CC5)c(OC)cc4cc23)c(Cl)cc1F [Example 211]: 128
- COc1cc(Nc2c(C#N)cnc3cc4cc(OC)c(OCCN5CCN(C)CC5)cc4cc23)c(Cl)cc1C [Example 202]: 68
- COc1cc(Nc2c(C#N)cnc3cc4cc(OC)c(OCCN5CCOCC5)cc4cc23)c(Cl)cc1F [Example 209]: 309

Now turn to the next compound.
Report GI50 for COc1cc(Nc2c(C#N)cnc3cc4cc(OC)c(OCCN5CCC(O)CC5)cc4cc23)c(Cl)cc1C [Example 207]
929

---

# SUBJECT_OF_TEST: recombinant human MEK 1 (MAPKK) and recombinant human ERK2 (MAPK) (Homo sapiens, UniProt P28482+Q02750)
# Construct: GST
# MEASUREMENT_NOTES: Mitogen Activated Protein Kinase (MAPK) coupled Mek-Erk test procedure
# Type: biochemical
Some compounds, each annotated with its measured Mek-Erk IC50.
Quick note: give the figure in µM, leave out the unit.

* N#Cc1cnc2c(sc3ccccc32)c1Nc1ccc(Oc2ccccc2)cc1 [Example 69] | 3
* N#Cc1cnc2c(c1Nc1ccc(Oc3ccccc3)cc1)C=C1N=CN=C1C2 [Example 44] | 0.03
* COc1ccc(Cl)c(Nc2c(C#N)cnc3c2C=C2N=CN=C2C3)c1 [Example 40] | 0.5
* N#Cc1cnc2c(c1Nc1ccc(Cl)cc1Br)C=C1N=CN=C1C2 [Example 38] | 1.3
* N#Cc1cnc2cc3ccccc3cc2c1Nc1ccc(Oc2ccccc2)cc1 [Example 3] | 0.2

Report Mek-Erk IC50 for COc1cc(Nc2c(C#N)cnc3c2C=C2N=CN=C2C3)c(Br)cc1Cl [Example 39]
1.3
